Target: CMKLR1 (recombinant, species not given)
Assay: cell-based or functional assay
Non-standard residues stand in square brackets, D forms with d. No end group written: not given here. Tic = O=C(O)[C@@H]1Cc2ccccc2CN1
measured metric: CMKLR1 canonical Gαi signal transduction, EC50 (wash × 3) (nM)
Give the number; nM is assumed, so skip it.

// [dY]FLP[dS]QF[dA][Tic]S (also: C18:1 lipid tail (which C18:1 acid not given here), linker and attachment not given here) [C18:1 lipidated stable chemerin 9 analog] : CMKLR1 canonical Gαi signal transduction, EC50 (wash × 3) value = 26.4

// [dY]FLP[dS]QF[dA][Tic]S (also: cholesterol lipid tail, linker and attachment not given here) [Cholesterol lipidated stable chemerin 9 analog] : CMKLR1 canonical Gαi signal transduction, EC50 (wash × 3) value = 445

// [dY]FLP[dS]QF[dA][Tic]S (also: C18:3 (linolenic acid) lipid tail, linker and attachment not given here) [C18:3 lipidated stable chemerin 9 analog] : CMKLR1 canonical Gαi signal transduction, EC50 (wash × 3) value = 350

// [dY]FLP[dS]QF[dA][Tic]S (also: C16 (palmitic acid) lipid tail, linker and attachment not given here) [C16 lipidated stable chemerin 9 analog] : CMKLR1 canonical Gαi signal transduction, EC50 (wash × 3) value = 18.6

// [dY]FLP[dS]QF[dA][Tic]S (also: C16:1 lipid tail, linker and attachment not given here) [C16:1 lipidated stable chemerin 9 analog] : CMKLR1 canonical Gαi signal transduction, EC50 (wash × 3) value = 42.2

// [dY]FLP[dS]QF[dA][Tic]S (also: C14:1 lipid tail, linker and attachment not given here) [C14:1 lipidated stable chemerin 9 analog] : CMKLR1 canonical Gαi signal transduction, EC50 (wash × 3) value = 100
